B1: HDV Ribozyme (parent)
chain: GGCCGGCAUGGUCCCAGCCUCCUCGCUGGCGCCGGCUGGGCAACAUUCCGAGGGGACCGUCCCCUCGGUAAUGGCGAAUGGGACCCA

variants of: B1; assay: self-cleavage, relative activity (ratio to wild type); higher = more cleavage; co-transcriptional
measured_endpoint: self-cleavage

>  <changes>
C84U C85A

>  <recorded_number>
0.877

$$$$
>  <changes>
C66A A78U

>  <recorded_number>
0.198

$$$$
>  <changes>
A8C

>  <recorded_number>
0.859

$$$$
>  <changes>
G74A A78G

>  <recorded_number>
0.111

$$$$
>  <changes>
G34A G35C

>  <recorded_number>
0.0378

$$$$
>  <changes>
U12C C58U

>  <recorded_number>
0.222

$$$$
>  <changes>
G5C G68A

>  <recorded_number>
0.208

$$$$
>  <changes>
C30G C58U

>  <recorded_number>
0.0906

$$$$
>  <changes>
C32A A42U

>  <recorded_number>
0.166

$$$$
>  <changes>
C15G U27A

>  <recorded_number>
0.431

$$$$
>  <changes>
G39U U46A

>  <recorded_number>
0.285

$$$$
>  <changes>
A8C C41U

>  <recorded_number>
0.748

$$$$
>  <changes>
G73A A78C

>  <recorded_number>
0.265

$$$$
>  <changes>
U9G C13U

>  <recorded_number>
1.07

$$$$
>  <changes>
G52A U79C

>  <recorded_number>
0.514

$$$$
>  <changes>
G10A

>  <recorded_number>
0.779

$$$$
>  <changes>
C36U U65C

>  <recorded_number>
0.712

$$$$
>  <changes>
G74A G76C

>  <recorded_number>
0.464

$$$$
>  <changes>
C4G G5U

>  <recorded_number>
0.0545

$$$$
>  <changes>
G81A C85G

>  <recorded_number>
0.175

$$$$
>  <changes>
C15A C58U

>  <recorded_number>
0.458

$$$$
>  <changes>
U37C C49A

>  <recorded_number>
1.31

$$$$

The measured values listed here are drawn from the RNAGym collection of RNA variant scans (doi:10.7554/elife.80360).
